# System: 171881-019-R-J1-PDC complex spheroid growth, % test/control;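 also: spheroids exposed to compounds for 7 days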
# procedureText: Anticancer human tumor 171881-019-R-J1-PDC patient-derived invasive breast carcinoma cell line growth inhibition [Asc]
# conditionsUsed: second compound 0.949 µM; first compound 0.316 µM; hits give low values
viability, T/C values, listed per item
Just the number please, in %, no unit attached.

CCN1CCN(Cc2ccc(Nc3ncc(F)c(-c4cc(F)c5nc(C)n(C(C)C)c5c4)n3)nc2)CC1 + CCN1C(C(=O)NC23CCC(C(=O)O)(CC2)CC3)C(c2cccc(Cl)c2F)C2(C(=O)Nc3cc(Cl)ccc32)C12CCCCC2: 129
C=C(F)C(=O)N1CCN(c2nc(OCC3CCCN3C)nc3c2CCN(c2cccc4cccc(Cl)c24)C3)CC1CC#N (centres undefined) + CCN1C(C(=O)NC23CCC(C(=O)O)(CC2)CC3)C(c2cccc(Cl)c2F)C2(C(=O)Nc3cc(Cl)ccc32)C12CCCCC2: 108

Incoming: Entry C=CC(=O)N1CCN(c2nc(=O)n(-c3c(C)ccnc3C(C)C)c3nc(-c4c(O)cccc4F)c(F)cc23)C(C)C1 (centres undefined) + CCN1C(C(=O)NC23CCC(C(=O)O)(CC2)CC3)C(c2cccc(Cl)c2F)C2(C(=O)Nc3cc(Cl)ccc32)C12CCCCC2 : reported viability, T/C = ?
Outgoing: 116

Incoming: Entry C#Cc1c(F)ccc2cc(O)cc(-c3ncc4c(N5CC6CCC(C5)N6)nc(OCC56CCCN5CC(F)C6)nc4c3F)c12 (centres undefined) + CCN1C(C(=O)NC23CCC(C(=O)O)(CC2)CC3)C(c2cccc(Cl)c2F)C2(C(=O)Nc3cc(Cl)ccc32)C12CCCCC2 : reported viability, T/C = ?
Outgoing: 146
